# Tested on: Alpha-1A adrenergic receptor (Homo sapiens, UniProt P35348)
# Sequence (P35348 whole entry): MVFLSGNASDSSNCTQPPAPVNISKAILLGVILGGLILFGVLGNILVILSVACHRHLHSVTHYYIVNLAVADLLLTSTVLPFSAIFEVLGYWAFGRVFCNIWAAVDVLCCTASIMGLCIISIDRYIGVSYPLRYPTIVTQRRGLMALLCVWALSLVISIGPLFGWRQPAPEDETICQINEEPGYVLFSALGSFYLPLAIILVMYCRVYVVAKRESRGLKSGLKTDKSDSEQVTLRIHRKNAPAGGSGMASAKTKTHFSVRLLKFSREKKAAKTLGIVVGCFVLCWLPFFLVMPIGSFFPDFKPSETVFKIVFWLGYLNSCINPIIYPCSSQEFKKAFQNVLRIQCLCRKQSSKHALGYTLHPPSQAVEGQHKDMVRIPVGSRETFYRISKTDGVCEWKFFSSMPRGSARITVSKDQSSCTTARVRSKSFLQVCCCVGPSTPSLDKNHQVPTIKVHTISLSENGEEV
# Assay protocol: Selectivity interaction (Binding assay) EUB0000341aCl ADRA1A
Measure name: IC50 (µM)
Give the number; µM is assumed, so skip it.

Form: molecule = "C[C@@H](c1cccc(C#N)c1)n1cc(Cl)cc(C(N)=O)c1=N" ; IC50 = 2.7

* * *

# Tested on: Coagulation factor XI (Homo sapiens, UniProt P03951)
# Sequence (P03951 19-387 limits assumed): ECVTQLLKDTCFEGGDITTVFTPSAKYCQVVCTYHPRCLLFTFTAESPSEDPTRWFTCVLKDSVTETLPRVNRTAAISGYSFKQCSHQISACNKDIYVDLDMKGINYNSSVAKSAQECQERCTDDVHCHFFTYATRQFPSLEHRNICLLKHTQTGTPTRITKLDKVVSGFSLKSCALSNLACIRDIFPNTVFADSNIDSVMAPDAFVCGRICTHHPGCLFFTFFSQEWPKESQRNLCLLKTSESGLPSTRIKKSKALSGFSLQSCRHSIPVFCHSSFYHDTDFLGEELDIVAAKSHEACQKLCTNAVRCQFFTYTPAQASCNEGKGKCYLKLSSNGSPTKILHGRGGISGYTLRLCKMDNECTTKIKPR
# Sequence (P03951 388-625 limits assumed): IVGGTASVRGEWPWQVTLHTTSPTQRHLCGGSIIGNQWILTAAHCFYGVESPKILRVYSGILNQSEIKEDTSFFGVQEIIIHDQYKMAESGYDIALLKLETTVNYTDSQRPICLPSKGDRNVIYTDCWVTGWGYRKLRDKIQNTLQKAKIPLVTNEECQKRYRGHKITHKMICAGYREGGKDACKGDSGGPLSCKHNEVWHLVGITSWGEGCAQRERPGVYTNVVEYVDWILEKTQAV
# Assay protocol: Selectivity interaction (Serine protease panel) EUB0000735a F11
Measure name: IC50

For CC(=O)C1=C(C)N(c2cccc(C(F)(F)F)c2)C(=O)N[C@@H]1c1ccc(C#N)nc1 [BAY-678] the compound record lists IC50 as > 30 µM

* * *

# Tested on: Inhibitor of nuclear factor kappa-B kinase subunit alpha (Homo sapiens, UniProt O15111)
# Sequence (O15111 whole entry): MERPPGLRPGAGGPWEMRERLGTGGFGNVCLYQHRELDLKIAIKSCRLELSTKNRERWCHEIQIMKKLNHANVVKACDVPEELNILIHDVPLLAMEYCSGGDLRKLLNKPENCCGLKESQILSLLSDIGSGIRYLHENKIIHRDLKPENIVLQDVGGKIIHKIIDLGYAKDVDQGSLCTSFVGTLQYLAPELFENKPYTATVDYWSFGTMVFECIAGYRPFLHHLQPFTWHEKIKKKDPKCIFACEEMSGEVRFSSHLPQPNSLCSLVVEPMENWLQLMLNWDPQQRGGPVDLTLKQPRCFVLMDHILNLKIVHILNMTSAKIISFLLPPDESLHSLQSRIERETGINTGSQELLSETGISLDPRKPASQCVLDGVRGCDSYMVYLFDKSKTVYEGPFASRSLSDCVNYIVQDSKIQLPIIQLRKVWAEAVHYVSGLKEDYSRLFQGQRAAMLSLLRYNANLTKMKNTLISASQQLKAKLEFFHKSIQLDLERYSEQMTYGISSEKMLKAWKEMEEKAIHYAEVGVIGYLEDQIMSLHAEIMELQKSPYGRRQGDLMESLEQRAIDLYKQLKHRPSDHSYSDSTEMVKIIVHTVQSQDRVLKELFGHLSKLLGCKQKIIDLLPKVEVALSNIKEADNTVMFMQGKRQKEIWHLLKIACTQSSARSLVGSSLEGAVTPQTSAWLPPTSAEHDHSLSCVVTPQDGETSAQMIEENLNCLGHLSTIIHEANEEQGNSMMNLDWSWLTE
# Assay protocol: Selectivity interaction (Enzymatic assay) EUB0000624a CHUK
pIC50: −log10 of the molar value.
Measure name: pIC50

Quick note, pIC50 for "CCOc1ccn(-c2ccc(F)cc2)c(=O)c1C(=O)Nc1ccc(Oc2ccnc(N)c2Cl)c(F)c1" landed at < 5.70

* * *

# Tested on: Serine/threonine-protein kinase pim-1 (Homo sapiens, UniProt P11309)
# Sequence (P11309 whole entry): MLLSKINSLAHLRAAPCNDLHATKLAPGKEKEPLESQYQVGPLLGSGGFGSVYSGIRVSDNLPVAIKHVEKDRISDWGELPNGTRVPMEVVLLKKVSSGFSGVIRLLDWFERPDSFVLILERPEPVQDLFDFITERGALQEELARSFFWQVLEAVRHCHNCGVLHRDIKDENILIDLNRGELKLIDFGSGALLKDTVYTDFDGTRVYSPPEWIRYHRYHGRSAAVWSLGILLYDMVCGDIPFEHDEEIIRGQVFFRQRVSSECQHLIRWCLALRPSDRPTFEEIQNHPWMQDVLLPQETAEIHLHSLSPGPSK
# Assay protocol: Selectivity interaction (PSP kinase safety panel (Eurofins)) EUB0000283b PIM1
Measure name: pIC50
Quick note: pIC50 values are minus log10 of concentrations in mol/L.

Consider "C[C@H]1CCCN1Cc1nc2cc(NC(=O)c3ccc4cnccc4c3)ccc2[nH]1" . Its measured pIC50 is 5.07

* * *

# Tested on: Sodium-dependent dopamine transporter (Homo sapiens)
# Sequence (Q01959 whole entry): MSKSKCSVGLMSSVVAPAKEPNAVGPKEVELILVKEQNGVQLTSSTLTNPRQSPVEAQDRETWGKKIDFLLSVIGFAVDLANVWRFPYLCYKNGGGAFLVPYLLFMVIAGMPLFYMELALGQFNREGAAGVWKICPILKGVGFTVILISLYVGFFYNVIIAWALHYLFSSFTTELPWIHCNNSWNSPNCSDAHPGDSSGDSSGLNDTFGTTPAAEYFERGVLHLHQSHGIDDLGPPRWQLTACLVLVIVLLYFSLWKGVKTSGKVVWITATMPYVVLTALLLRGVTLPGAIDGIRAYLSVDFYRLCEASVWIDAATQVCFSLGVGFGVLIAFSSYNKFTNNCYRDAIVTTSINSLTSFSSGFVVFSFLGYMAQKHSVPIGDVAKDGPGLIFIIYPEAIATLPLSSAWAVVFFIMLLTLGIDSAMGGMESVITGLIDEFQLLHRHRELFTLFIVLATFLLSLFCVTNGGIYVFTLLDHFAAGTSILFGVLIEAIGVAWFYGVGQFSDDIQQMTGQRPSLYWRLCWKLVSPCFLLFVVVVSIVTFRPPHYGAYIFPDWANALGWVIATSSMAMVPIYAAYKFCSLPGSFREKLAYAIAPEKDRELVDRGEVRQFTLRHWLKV
# Assay protocol: Selectivity interaction (Eurofins-Panlabs radioligand binding assay) EUB0000716a SLC6A3
Measure name: Ki (nM)
Write the number in nM without appending the unit.

The value of Ki measured for the compound Cc1c[nH]c2nccc(Oc3c(F)cc(Nc4cc(Cl)nc(N)n4)cc3F)c12 [BAY-549] turned out to be 27
